- Read-out: Interleukin-8 (IL8), CXCL8 (gene 3576)
- experimental details: BSK_3C_IL8: BioMAP Diversity Plus: 3C Assay for Interleukin-8 (IL8) Biomarker Activity (AID 2283020)
- condition description: primary human endothelial cells (HUVEC); actives raise or lower the signal
The source made the active and inactive calls. The calls were made as follows: active = hit-call score of the fitted dose curve at least 0.9, where 1 is the maximum; inactive = score below 0.9.
Field 'call' accepts active, inactive

Some solved entries appear below for comparison.
compound: FC(F)C(F)(F)COCC1CO1 (stereo unspecified)
group: inactive

compound: CCCCCOC(C)=O
group: inactive

compound: OC(CCl)CCl
group: inactive

compound: OCc1c[nH]c2ccccc12
group: inactive

compound: Cn1c(=O)c2[nH]cnc2n(C)c1=O
group: inactive

What call does the record list for `CCOC(N)=O` ?
inactive

====

- Read-out: Interferon-gamma inducible Protein 10 (IP10), CXCL10 (gene 3627)
- experimental details: BSK_hDFCGF_IP10: BioMAP Diversity Plus: hDFCGF Assay for Interferon-gamma inducible Protein 10 (IP10) Biomarker Activity (AID 2283053)
- condition description: primary human foreskin fibroblasts; actives raise or lower the signal
Active and inactive are the calls of the source. The calls were made as follows: active = hit-call score of the fitted dose curve at least 0.9, where 1 is the maximum; inactive = score below 0.9.
Respond using exactly one of the listed classes: active, inactive

Recorded results for 5 molecules are shown here.
molecule: c1ccc2c(c1)-c1cccc3c1c-2cc1ccccc13
group: inactive
//
molecule: CCCC(CCC)C(=O)O
group: inactive
//
molecule: Cc1nccn1-c1ccc(Sc2cccc(C3(C(N)=O)CCOCC3)c2)cc1
group: active
//
molecule: CCCc1ccccc1
group: inactive
//
molecule: OCCOCCOCCO
group: inactive

Lab log entry: `c1ccc(C(O[C@@H]2CCCN(CCc3ccc4c(c3)OCO4)C2)c2ccccc2)cc1` — outcome as called in the assay?
active

Please let me know the test result on file for `FC(F)=C(F)C(F)(F)C(F)(F)C(F)(F)C(F)(F)C(F)(F)C(F)(F)F` .
inactive

Status in this test for `CC[C@H](C)C(=O)O[C@H]1C[C@H](O)C=C2C=C[C@H](C)[C@H](CC[C@@H](O)C[C@@H](O)CC(=O)O)[C@H]21` ?
inactive

What did the test return for `CC1(C)C(=O)N(Cl)C(=O)N1Cl` ?
inactive

Lab log entry: `Cc1ncc([C@@H](CCCCCCc2ccc3c(n2)NCCC3)CC(=O)O)cn1` — outcome as called in the assay?
inactive

# fetch the recorded call for `S=P(N1CC1)(N1CC1)N1CC1` here
inactive

Could you check what this test reported for `OC(Cn1cncn1)(Cn1cncn1)c1ccc(F)cc1F` ?
inactive

Name the outcome recorded for `CCCCCCCCCC` in the assay.
inactive

Test call, this molecule: `COc1cc2c(c(OC)c1OC)-c1ccc(OC)c(=O)cc1[C@@H](NC(C)=O)CC2`
active

Call for entry CC(C)CC(C)O (configuration not stated) :
inactive

Dear all, I need the recorded test outcome for `CCCCCCOC(=O)CC(CC(=O)OCCCCCC)(OC(=O)CCC)C(=O)OCCCCCC` , thank you.
inactive

Call for entry `C=CCc1cc(S(=O)(=O)c2ccc(O)c(CC=C)c2)ccc1O` :
active

Entry `OCCNCCO` : call = ?
inactive

====

- Read-out: Human Leukocyte Antigen - DR isotype (HLADR), HLA-DRA (gene 3122)
- experimental details: BSK_CASM3C_HLADR: BioMAP Diversity Plus: CASM3C Assay for Human Leukocyte Antigen - DR isotype (HLADR) Biomarker Activity (AID 2283043);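 also: cell-surface HLA-DR protein level quantified by ELISA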
- condition description: primary human coronary artery smooth muscle cells; actives raise or lower the signal
Active and inactive are the calls of the source. The calls were made as follows: active = hit-call score of the fitted dose curve at least 0.9, where 1 is the maximum; inactive = score below 0.9.
Allowed answers: active, inactive

compound: Cn1cc[nH]c1=S
group: inactive
--
compound: NC(=O)NN=Cc1ccc([N+](=O)[O-])o1
group: inactive
--
compound: OC[C@H]1O[C@@H]2O[C@H]3[C@H](O)[C@@H](O)[C@@H](O[C@H]4[C@H](O)[C@@H](O)[C@@H](O[C@H]5[C@H](O)[C@@H](O)[C@@H](O[C@H]6[C@H](O)[C@@H](O)[C@@H](O[C@H]7[C@H](O)[C@@H](O)[C@@H](O[C@H]1[C@H](O)[C@H]2O)O[C@@H]7CO)O[C@@H]6CO)O[C@@H]5CO)O[C@@H]4CO)O[C@@H]3CO
group: inactive
--
compound: CCN(CC)C(=S)SSC(=S)N(CC)CC
group: active

Check the results log: what was the call for `O=C1CN(N=Cc2ccc([N+](=O)[O-])o2)C(=O)N1` ?
inactive

Write down the call the test reported for this compound. Item: `OC(Cn1cncn1)(Cn1cncn1)c1ccc(F)cc1F`
inactive

For `CCCCCCCC/C=C\CCCCCCCC(=O)OC[C@@H](O)[C@H]1OC[C@H](O)[C@H]1O` , which call appears in the assay record?
inactive

Answer briefly: the call reported for `CCCCCOC(C)=O` in this assay.
inactive

Lab log entry: `O=S(=O)(O)c1ccc(N=Nc2c(O)ccc3cc(S(=O)(=O)O)ccc23)cc1` — outcome as called in the assay?
inactive

Give the logged outcome of this assay for the following compound: `Cc1cccc(O)c1C`
inactive

Short answer needed: outcome of this test for CCCCCCCC1CCC(=O)O1 (stereo not drawn) ?
inactive

Name the outcome recorded for `CCCOc1ccc(S(=O)(=O)N2CCN(CC)CC2)cc1-c1nc2c(CC)n(Cc3ccccn3)nc2c(=O)[nH]1` in the assay.
active

Hello, I am checking results. What call was entered for `O=C(NO)C1(NS(=O)(=O)c2ccc(Oc3ccc(F)cc3)cc2)CCOCC1` ?
inactive

In this assay, the call recorded for `CCCCCCCCCC` was what?
inactive

Assay outcome for `OC(O)(C(F)C(O)(O)C(F)(F)F)C(F)(F)F` : what was it?
inactive

Numbers sourced from PubChem BioAssay (EPA / NIEHS).
